system: Nakaseomyces glabratus; experiment: Antimicrobial activity against deltacrz1 mutant containing Candida glabrata TG173 complemented with CRZ1 gene by colorimetric microdilution method; format: functional
readout.type: MIC (µg/mL)
Provide the reading as a plain figure in µg/mL.

As a guide, the following entries are already answered.
compound	MIC [µg/mL]
Clc1ccc(COC(Cn2ccnc2)c2ccc(Cl)cc2Cl)c(Cl)c1 (stereo not given) [MICONAZOLE]	0.5
CCC(C)n1ncn(-c2ccc(N3CCN(c4ccc(OCC5COC(Cn6cncn6)(c6ccc(Cl)cc6Cl)O5)cc4)CC3)cc2)c1=O (stereo not given) [ITRACONAZOLE]	1
OC(Cn1cncn1)(Cn1cncn1)c1ccc(F)cc1F [FLUCONAZOLE]	16
C[C@@H]1[C@H](O)[C@@H](C)/C=C/C=C/C=C/C=C/C=C/C=C/C=C/[C@H](O[C@@H]2O[C@H](C)[C@@H](O)[C@H](N)[C@@H]2O)C[C@@H]2O[C@](O)(C[C@@H](O)C[C@@H](O)[C@H](O)CC[C@@H](O)C[C@@H](O)CC(=O)O[C@H]1C)C[C@H](O)[C@H]2C(=O)O [AMPHOTERICIN B]	0.5

Form field MIC, entry C[C@@H](c1ncncc1F)[C@](O)(Cn1cncn1)c1ccc(F)cc1F [VORICONAZOLE] : 0.25
